Reported inhibition by item:
target: Serine/threonine-protein kinase PAK 5 (Homo sapiens) (UniProt Q9P286); conditions: at 1 µM
Sequence (Q9P286 whole entry, looked up): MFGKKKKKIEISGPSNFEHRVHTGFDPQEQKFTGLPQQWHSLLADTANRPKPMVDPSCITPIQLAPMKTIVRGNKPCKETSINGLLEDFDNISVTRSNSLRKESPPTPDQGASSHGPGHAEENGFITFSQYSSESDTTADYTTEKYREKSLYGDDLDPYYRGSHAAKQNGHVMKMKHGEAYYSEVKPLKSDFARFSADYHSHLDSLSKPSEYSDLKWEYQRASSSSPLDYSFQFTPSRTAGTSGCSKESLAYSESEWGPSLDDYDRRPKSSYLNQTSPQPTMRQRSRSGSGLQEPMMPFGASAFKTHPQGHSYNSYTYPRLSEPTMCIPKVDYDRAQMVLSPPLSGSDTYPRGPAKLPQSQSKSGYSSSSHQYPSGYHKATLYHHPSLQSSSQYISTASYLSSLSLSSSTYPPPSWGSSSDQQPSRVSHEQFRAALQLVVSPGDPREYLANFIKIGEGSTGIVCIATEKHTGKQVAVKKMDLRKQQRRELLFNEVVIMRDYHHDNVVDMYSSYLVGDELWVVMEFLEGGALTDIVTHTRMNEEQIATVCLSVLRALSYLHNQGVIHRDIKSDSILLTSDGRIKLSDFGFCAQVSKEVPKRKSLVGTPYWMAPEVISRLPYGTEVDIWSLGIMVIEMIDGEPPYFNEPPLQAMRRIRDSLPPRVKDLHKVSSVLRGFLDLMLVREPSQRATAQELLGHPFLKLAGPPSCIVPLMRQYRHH
Description: GSK_PKIS: PAK5 mean inhibition at 1 uM [Nanosyn]
Dear colleague, please return just the value in %, with no unit written.

molecule: COc1ccc(-c2ccncc2)cc1C(N)=O
readout_number: 8.05

Task: State its inhibition on Serine/threonine-protein kinase PAK 5 (Homo sapiens) (UniProt Q9P286): COc1cc2ncn(-c3cc(OCc4ccccc4Cl)c(C(N)=O)s3)c2cc1OC
Output: 0.31

Task: Provide value of inhibition for this record tested with Serine/threonine-protein kinase PAK 5 (Homo sapiens) (UniProt Q9P286): Cc1cccc(-c2n[nH]cc2-c2ccc3ncccc3n2)n1
Output: -3.76

Task: Notebook entry, Serine/threonine-protein kinase PAK 5 (Homo sapiens) (UniProt Q9P286) assay: inhibition of COc1cccc(-n2ncc3c(N/N=C/c4cccc(F)c4)ncnc32)c1 = ?
Output: -8.07

Task: // lookup inhibition | system=Serine/threonine-protein kinase PAK 5 (Homo sapiens) (UniProt Q9P286) | key= Cc1ccc(NC(=O)c2ccnc(N3CCCC3)c2)cc1-c1ccc(C(=O)NCC2CC2)cc1
Output: -5.63

Task: Give Serine/threonine-protein kinase PAK 5 (Homo sapiens) (UniProt Q9P286) inhibition for COC(=O)Nc1nc2cc(Oc3ccc(NC(=O)Nc4cccc(C(=O)O)c4)cc3)ccc2[nH]1
Output: 3.29

Task: Give inhibition (Serine/threonine-protein kinase PAK 5 (Homo sapiens) (UniProt Q9P286)) of the following molecule: Fc1cccc(COc2ccc(Nc3ncnc4cc(-c5ccc[nH]5)sc34)cc2Cl)c1
Output: -0.78

Task: What inhibition appears in the records for this molecule with Serine/threonine-protein kinase PAK 5 (Homo sapiens) (UniProt Q9P286)? COC(=O)Nc1nc2cc(Oc3cccc(NC(=O)Nc4cc(C(F)(F)F)ccc4F)c3)ccc2[nH]1
Output: -5.17

###

target: Cytoplasmic tyrosine-protein kinase BMX (Homo sapiens) (UniProt P51813); conditions: at 0.1 µM
Sequence (P51813 whole entry): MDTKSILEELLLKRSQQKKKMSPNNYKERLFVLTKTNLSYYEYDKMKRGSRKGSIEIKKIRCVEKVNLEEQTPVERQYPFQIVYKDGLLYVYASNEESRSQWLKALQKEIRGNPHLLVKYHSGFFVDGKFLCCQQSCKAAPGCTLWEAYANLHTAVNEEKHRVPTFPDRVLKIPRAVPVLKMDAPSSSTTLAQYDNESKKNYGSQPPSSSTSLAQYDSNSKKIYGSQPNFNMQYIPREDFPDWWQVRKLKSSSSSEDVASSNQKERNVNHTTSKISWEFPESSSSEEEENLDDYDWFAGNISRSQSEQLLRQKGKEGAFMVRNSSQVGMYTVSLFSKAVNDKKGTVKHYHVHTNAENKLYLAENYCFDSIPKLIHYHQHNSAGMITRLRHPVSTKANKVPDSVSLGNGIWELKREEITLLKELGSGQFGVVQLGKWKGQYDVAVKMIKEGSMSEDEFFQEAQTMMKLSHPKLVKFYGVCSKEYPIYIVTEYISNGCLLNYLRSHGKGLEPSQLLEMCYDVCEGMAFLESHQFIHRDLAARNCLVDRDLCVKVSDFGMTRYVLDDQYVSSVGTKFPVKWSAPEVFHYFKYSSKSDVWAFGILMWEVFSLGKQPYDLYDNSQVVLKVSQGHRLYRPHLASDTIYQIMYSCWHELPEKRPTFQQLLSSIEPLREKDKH
Description: GSK_PKIS: BMX mean inhibition at 0.1 uM [Nanosyn]
assay_endpoint: inhibition (%)
Give your result in % as a bare value.

substance_smiles: CCCN1CCC(Oc2cc(Nc3nc(Nc4cccc(F)c4C(N)=O)c4cc[nH]c4n3)c(OC)cc2Cl)CC1
readout_number: -3.07
--
substance_smiles: c1cnn2ncc(-c3ccnc(Nc4ccc5c(c4)OCCO5)n3)c2c1
readout_number: 1.58
--
substance_smiles: COc1cc2c(cc1Nc1nc(N3CCc4ccccc43)c3cc[nH]c3n1)N(C(=O)CN(C)C)CC2
readout_number: -0.34
--
substance_smiles: CCn1c(-c2nonc2N)nc2c(C#CC(C)(C)O)nc(CN3CCCC3)cc21
readout_number: 2.82

Next molecule, inhibition to be filled in.
Task: // returns reported inhibition for input Nc1nc(-c2ccccn2)c(-c2ccc3ncccc3n2)s1
Output: -0.49

###

biological target: Serine/threonine-protein kinase DCLK2 (Homo sapiens) (UniProt Q8N568); settings: at 0.1 µM
Sequence (Q8N568 whole entry): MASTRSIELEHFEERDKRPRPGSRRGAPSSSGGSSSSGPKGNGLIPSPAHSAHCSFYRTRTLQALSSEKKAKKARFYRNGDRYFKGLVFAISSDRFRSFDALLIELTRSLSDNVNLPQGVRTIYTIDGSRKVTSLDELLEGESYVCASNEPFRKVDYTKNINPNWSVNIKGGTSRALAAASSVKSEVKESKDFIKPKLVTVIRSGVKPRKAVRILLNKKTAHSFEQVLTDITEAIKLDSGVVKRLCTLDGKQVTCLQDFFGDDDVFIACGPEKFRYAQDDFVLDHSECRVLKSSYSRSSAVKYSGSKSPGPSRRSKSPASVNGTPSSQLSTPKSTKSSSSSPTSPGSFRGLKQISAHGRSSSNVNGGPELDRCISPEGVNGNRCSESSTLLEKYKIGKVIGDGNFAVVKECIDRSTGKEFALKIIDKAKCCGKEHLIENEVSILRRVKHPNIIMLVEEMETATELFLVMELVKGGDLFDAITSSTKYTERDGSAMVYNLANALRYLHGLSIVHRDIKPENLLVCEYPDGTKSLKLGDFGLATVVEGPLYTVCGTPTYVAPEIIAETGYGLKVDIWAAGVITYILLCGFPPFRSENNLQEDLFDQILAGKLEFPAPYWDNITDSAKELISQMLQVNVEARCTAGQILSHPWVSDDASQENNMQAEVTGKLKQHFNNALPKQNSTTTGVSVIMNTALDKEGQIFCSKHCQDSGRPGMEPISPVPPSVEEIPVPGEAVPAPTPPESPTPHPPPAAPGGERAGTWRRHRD
assay_endpoint: inhibition

Here are 6 molecules together with their reported answers.
molecule: COc1ccc(COc2ccc(Cc3cnc(N)nc3N)cc2OC)cc1
test_target: Serine/threonine-protein kinase DCLK2 (Homo sapiens) (UniProt Q8N568)
inhibition: 0.28%
//
molecule: CS(=O)(=O)Nc1ccc(N/C=C2\C(=O)Nc3ccccc32)cc1
test_target: Serine/threonine-protein kinase DCLK2 (Homo sapiens) (UniProt Q8N568)
inhibition: -2.55%
//
molecule: [O-][S+]1CCN(Cc2ccc(-c3ccc4ncnc(Nc5ccc(OCc6ccccc6)c(F)c5)c4c3)o2)CC1
test_target: Serine/threonine-protein kinase DCLK2 (Homo sapiens) (UniProt Q8N568)
inhibition: 1.91%
//
molecule: CC(=O)Nc1cccc(C#Cc2cncnc2Nc2ccc(OCc3cccc(F)c3)c(Cl)c2)n1
test_target: Serine/threonine-protein kinase DCLK2 (Homo sapiens) (UniProt Q8N568)
inhibition: 5.73%
//
molecule: CS(=O)(=O)CCNCc1nc(-c2ccc3ncnc(Nc4ccc(F)c(Cl)c4)c3c2)cs1
test_target: Serine/threonine-protein kinase DCLK2 (Homo sapiens) (UniProt Q8N568)
inhibition: 0.59%
//
molecule: Cn1cc(C=C2C(=O)Nc3cccnc32)c2ccccc21
test_target: Serine/threonine-protein kinase DCLK2 (Homo sapiens) (UniProt Q8N568);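 note: reported value is the mean percent inhibition of DCAMKL2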
inhibition: 0.87%

Task: Given the molecule Nc1ncnc2occ(-c3ccc(NC(=O)Nc4cccc(C(F)(F)F)c4)cc3)c12 , what is its reported inhibition?
Output: 0.41%

Task: # lookup: inhibition of Nc1ncnc2occ(-c3ccc(NC(=O)Nc4cc(C(F)(F)F)cc(C(F)(F)F)c4)cc3)c12
Output: 0.95%

Task: For the molecule O=C1NC(=O)C(c2ccc(Cl)cc2)=C1Nc1ccc(Cl)c(C(=O)O)c1 , what inhibition is on record?
Output: -1.2%

Task: Quick one: inhibition of COc1cc2ncn(-c3cc(O[C@H](C)c4ccccc4Cl)c(C(N)=O)s3)c2cc1OC ?
Output: 0.64%

Task: Please report the recorded inhibition for NS(=O)(=O)c1cccc(-c2ccc3c(NC(=O)C4CC4)n[nH]c3c2)c1 .
Output: 0.34%

###

biological target: Serine/threonine-protein kinase MARK1 (Homo sapiens); settings: at 1 µM;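 note: reported values are mean percent inhibition of MARK1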
assay_endpoint: inhibition (%)
Give just the number in %; leave the unit off.

Task: Look up inhibition: CC1=C(C(=O)Nc2ccc3[nH]ncc3c2)C(c2ccc(Cl)c(Cl)c2)CC(=O)N1 (centres undefined)
Output: 5.92

###

Target: Serine/threonine-protein kinase Sgk1 (Homo sapiens) (UniProt O00141)
Sequence (whole entry): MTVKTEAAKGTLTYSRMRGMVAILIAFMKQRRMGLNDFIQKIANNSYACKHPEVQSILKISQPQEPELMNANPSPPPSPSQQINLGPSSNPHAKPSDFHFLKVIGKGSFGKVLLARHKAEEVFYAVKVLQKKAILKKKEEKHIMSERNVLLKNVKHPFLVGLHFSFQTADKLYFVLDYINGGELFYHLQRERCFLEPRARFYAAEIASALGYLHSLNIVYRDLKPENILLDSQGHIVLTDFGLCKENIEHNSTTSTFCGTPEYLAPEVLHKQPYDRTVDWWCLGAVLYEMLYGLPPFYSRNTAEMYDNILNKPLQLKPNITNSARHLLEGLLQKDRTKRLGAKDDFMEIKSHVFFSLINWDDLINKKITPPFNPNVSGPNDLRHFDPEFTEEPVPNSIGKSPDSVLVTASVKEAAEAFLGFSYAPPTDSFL
Settings: at 0.1 µM
Description: GSK_PKIS: SGK1 mean inhibition at 0.1 uM [Nanosyn]
Reported inhibition values for the following molecules.
Please format your answer as a value with the unit trailing.

Task: So what's the measured inhibition for this one? CN(C)c1cc2c(Nc3ccc4nc(Cc5ccccc5)[nH]c4c3)ncnc2cn1
Output: 3.83%

Task: For the molecule O=C1NC(=O)C(c2ccc(Cl)cc2)=C1Nc1ccc(Cl)c(C(=O)O)c1 , what inhibition is on record?
Output: 1.08%

Task: For the molecule Cc1nnc(-c2ccc(C)c(-c3ccc(C(=O)Nc4cccc(C#N)c4)cc3)c2)o1 , what inhibition is on record?
Output: 0.29%

###

target: G protein-coupled receptor kinase 6 (Homo sapiens) (UniProt P43250); settings: at 1 µM
Sequence (P43250 whole entry, looked up): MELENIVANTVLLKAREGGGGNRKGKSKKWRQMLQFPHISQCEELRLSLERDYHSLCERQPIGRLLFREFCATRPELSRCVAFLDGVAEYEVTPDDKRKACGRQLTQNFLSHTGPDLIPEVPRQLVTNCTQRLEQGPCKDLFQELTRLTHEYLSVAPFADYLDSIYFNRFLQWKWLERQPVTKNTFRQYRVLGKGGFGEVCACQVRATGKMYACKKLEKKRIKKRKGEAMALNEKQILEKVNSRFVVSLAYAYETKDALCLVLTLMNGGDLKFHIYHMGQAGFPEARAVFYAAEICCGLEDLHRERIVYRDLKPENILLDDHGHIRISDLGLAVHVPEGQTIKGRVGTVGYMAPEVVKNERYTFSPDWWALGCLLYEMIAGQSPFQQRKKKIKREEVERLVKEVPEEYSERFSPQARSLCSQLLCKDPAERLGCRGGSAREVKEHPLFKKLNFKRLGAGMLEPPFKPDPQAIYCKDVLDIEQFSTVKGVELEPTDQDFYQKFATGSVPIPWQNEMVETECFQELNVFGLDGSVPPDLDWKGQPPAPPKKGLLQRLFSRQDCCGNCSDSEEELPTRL
Recorded inhibition by entry
Provide the reading as a plain figure in %.

compound: NS(=O)(=O)c1ccc(N/N=C2\C(=O)Nc3ccc(C(=O)NCCc4c[nH]cn4)cc32)cc1
test_target: G protein-coupled receptor kinase 6 (Homo sapiens) (UniProt P43250)
inhibition [%]: 9.39

compound: CC(=O)Nc1cccc(C#Cc2cncnc2Nc2ccc(OCc3cccc(F)c3)c(Cl)c2)n1
test_target: G protein-coupled receptor kinase 6 (Homo sapiens) (UniProt P43250)
inhibition [%]: 6.19

compound: CNC(=O)c1cncc(/C=C/c2c(Cl)cccc2Cl)c1
test_target: G protein-coupled receptor kinase 6 (Homo sapiens) (UniProt P43250);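 note: values are averaged percent inhibition of GRK6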
inhibition [%]: 4.35

Task: Field request: inhibition | item: CC1=C(C(=O)Nc2ccc3[nH]ncc3c2)C(c2ccc(Cl)c(Cl)c2)CC(=O)N1 (stereo not given)
Output: 7.35

Task: Suppose we examine the compound CS(=O)(=O)CCNCc1nc(-c2ccc3ncnc(Nc4ccc(F)c(Cl)c4)c3c2)cs1 ; what inhibition value has been reported?
Output: 3.85

###

molecular target: Dual specificity tyrosine-phosphorylation-regulated kinase 1B (Homo sapiens); settings: at 0.1 µM
assay_endpoint: inhibition (%)
Could you give me the number in %? Just the number is fine.

substance_smiles: CCN1CCC(CC(=O)Nc2n[nH]c3nc(-c4cccs4)c(Br)cc23)CC1
test_target: Dual specificity tyrosine-phosphorylation-regulated kinase 1B (Homo sapiens);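 note: values are mean percent inhibition of DYRK1B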
inhibition (%): 4.83

Task: // inhibition lookup, key: COc1cc2ncn(-c3cc(OCc4ccccc4Cl)c(C(N)=O)s3)c2cc1OC
Output: 1.28

Task: Give its inhibition value. Item: Cc1cccc(-c2n[nH]cc2-c2ccc3ncccc3n2)n1
Output: -0.18

Task: Fill in: inhibition of COc1cc2c(cc1Nc1nc(N3CCc4ccccc43)c3cc[nH]c3n1)N(C(=O)CN(C)C)CC2 is ___
Output: 0.64

###

molecular target: RAF proto-oncogene serine/threonine-protein kinase (Homo sapiens) (UniProt P04049); conditions: at 1 µM
Sequence (P04049 whole entry): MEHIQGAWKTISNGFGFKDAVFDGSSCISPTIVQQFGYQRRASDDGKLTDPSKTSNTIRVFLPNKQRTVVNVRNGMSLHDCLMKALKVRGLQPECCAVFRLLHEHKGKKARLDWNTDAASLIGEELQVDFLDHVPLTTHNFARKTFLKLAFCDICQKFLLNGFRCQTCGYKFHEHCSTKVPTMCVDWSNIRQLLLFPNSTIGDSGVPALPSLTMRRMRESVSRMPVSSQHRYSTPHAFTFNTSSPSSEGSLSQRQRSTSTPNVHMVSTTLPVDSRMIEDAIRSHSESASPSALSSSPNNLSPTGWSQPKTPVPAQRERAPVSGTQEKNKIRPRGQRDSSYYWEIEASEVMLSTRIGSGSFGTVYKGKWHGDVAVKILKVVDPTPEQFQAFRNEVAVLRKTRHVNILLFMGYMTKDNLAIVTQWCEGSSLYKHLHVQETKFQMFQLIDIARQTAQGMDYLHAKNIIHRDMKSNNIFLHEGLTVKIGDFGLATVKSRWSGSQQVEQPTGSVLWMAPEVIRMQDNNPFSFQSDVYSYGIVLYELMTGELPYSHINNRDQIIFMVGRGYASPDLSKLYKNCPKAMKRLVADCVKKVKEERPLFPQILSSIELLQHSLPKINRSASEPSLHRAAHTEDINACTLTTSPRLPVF
Listed compounds paired with reported inhibition
Quick reminder: number only, in %, skip the unit.

substance_smiles: Fc1cccc(COc2ccc(Nc3ncnc4cc(-c5ccc[nH]5)sc34)cc2Cl)c1
test_target: RAF proto-oncogene serine/threonine-protein kinase (Homo sapiens) (UniProt P04049)
assay_endpoint: inhibition
readout_number: 1.43
--
substance_smiles: CCCN1CCC=C(c2ccc(Nc3nc(Nc4ccccc4C(N)=O)c4cc[nH]c4n3)c(C)c2)C1
test_target: RAF proto-oncogene serine/threonine-protein kinase (Homo sapiens) (UniProt P04049)
assay_endpoint: inhibition
readout_number: 3.95
--
substance_smiles: COc1cc(C=NNc2ncnc3c2cnn3-c2ccccc2)ccc1O
test_target: RAF proto-oncogene serine/threonine-protein kinase (Homo sapiens) (UniProt P04049)
assay_endpoint: inhibition
readout_number: -6.14
--
substance_smiles: CS(=O)(=O)Nc1ccc(N/C=C2\C(=O)Nc3ccccc32)cc1
test_target: RAF proto-oncogene serine/threonine-protein kinase (Homo sapiens) (UniProt P04049)
assay_endpoint: inhibition
readout_number: -2.68
--
substance_smiles: Nc1nc(-c2ccccn2)c(-c2ccc3ncccc3n2)s1
test_target: RAF proto-oncogene serine/threonine-protein kinase (Homo sapiens) (UniProt P04049);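 note: values are the mean percent inhibition of CRAF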
assay_endpoint: inhibition
readout_number: 2.42

Please examine the following record next.
Task: State the recorded inhibition for this entry: COc1ccc(-c2coc3ncnc(N)c23)cc1
Output: 4.1
